Entry source: ChEMBL document CHEMBL1144866

assay: Inhibitory activity against glycogen phosphorylase, activity expressed as -logKi
Think of 3 as a floor: if -Log Ki stands on it or above, it is MET; beneath it, NOT MET.

In [3]: df
Out[3]:
                                   molecule  label_value
0  NC(=O)N[C@H]1O[C@H](CO)[C@@H](O)[C@H](O)[C@H]1O          MET
1  COC(=O)N[C@]1(C(N)=O)O[C@H](CO)[C@@H](O)[C@H](O)[C@H]1O          MET
2  NCC(=O)N[C@H]1O[C@@H](CO)[C@@H](O)[C@H](O)[C@@H]1O          MET
3  O=C(N[C@H]1O[C@H](CO)[C@@H](O)[C@H](O)[C@H]1O)c1ccccc1          MET
4  NCC1OC(CO)C(O)C(O)C1O (stereo in doubt; form 2)      NOT MET
5  CCC(=O)N[C@H]1O[C@H](CO)[C@@H](O)[C@H](O)[C@H]1O          MET
6  CS(=O)(=O)OCC1OC(CO)C(O)C(O)C1O (stereo unspecified)      NOT MET
7  NC(=O)C1OC(CO)C(O)C(O)C1O (stereo unspecified)          MET
8  CNC(=O)C1OC(CO)C(O)C(O)C1O (stereo unspecified)          MET
9  CC(=O)N[C@H]1O[C@H](CO)[C@@H](O)[C@H](O)[C@H]1O          MET
